System: Myzus persicae
Experiment: adult Myzus on chinese cabbage leaf disc sprayed (Example C)
Type: in vivo
Settings: at 1000 ppm; 2 days, 25° C.
readoutType: active (mortality)

Example entries and their recorded answers appear below.
compound: CCC(C)NC(=O)/C=C/C=C/CCCCCCCOc1ccncc1 (centres unmarked)
systemTested: Myzus persicae
active (mortality): active
//
compound: CC(C=CCCCCCCCOc1ccc(Cl)cn1)=CC(=O)NCC(C)C
systemTested: Myzus persicae
active (mortality): active
//
compound: CC(C)CNC(=O)/C=C/C=C/CCCCCCCOc1ccncc1
systemTested: Myzus persicae
active (mortality): active
//
compound: CC(C)CNC(=O)C=CC=CCCCCCOc1cccc(Cl)n1
systemTested: Myzus persicae
active (mortality): active

Shifting focus to the compound that follows.
Q. Any idea what its active (mortality) is? The compound is CC(C)CNC(=O)C=CC=CCCCCCCCOc1ncccc1Cl
A. active
